Target: Serine/threonine-protein kinase Sgk1 (Homo sapiens) (UniProt O00141)
Sequence (whole entry): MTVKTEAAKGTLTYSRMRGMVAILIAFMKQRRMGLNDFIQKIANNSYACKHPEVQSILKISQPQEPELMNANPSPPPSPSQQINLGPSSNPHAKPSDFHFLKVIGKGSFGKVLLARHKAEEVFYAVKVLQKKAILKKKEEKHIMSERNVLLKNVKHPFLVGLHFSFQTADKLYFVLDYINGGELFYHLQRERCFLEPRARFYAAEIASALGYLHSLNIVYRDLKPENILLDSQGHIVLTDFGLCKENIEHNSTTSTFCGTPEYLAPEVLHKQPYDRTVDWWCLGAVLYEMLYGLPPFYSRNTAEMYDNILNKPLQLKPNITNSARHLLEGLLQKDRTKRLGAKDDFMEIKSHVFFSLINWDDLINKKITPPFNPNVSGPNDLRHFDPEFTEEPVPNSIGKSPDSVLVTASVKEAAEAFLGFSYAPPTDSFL
Conditions: at 0.1 µM
Description: GSK_PKIS: SGK1 mean inhibition at 0.1 uM [Nanosyn]
Measured inhibition accompanies every entry in the list below.
observedProperty: inhibition (%)

[[record]]
compound = "CC(=O)Nc1cccc(C#Cc2cncnc2Nc2ccc(OCc3cccc(F)c3)c(Cl)c2)n1"
observedproperty = "inhibition"
unitlabel = "%"
readoutvalue = 1.53

[[record]]
compound = "CCn1c(-c2nonc2N)nc2c(C#CC(C)(C)O)nc(OC[C@@H](N)c3ccccc3)cc21"
observedproperty = "inhibition"
unitlabel = "%"
readoutvalue = 0.38

[[record]]
compound = "CN1CCC(C(=O)Nc2n[nH]c3nnc(-c4ccccc4)cc23)CC1"
observedproperty = "inhibition"
unitlabel = "%"
readoutvalue = 3.01

[[record]]
compound = "O=C1NC(=O)C(c2cccc(Cl)c2)=C1Nc1ccc(O)c(Cl)c1"
observedproperty = "inhibition"
unitlabel = "%"
readoutvalue = 2.17

[[record]]
compound = "COc1cc2c(cc1Nc1nc(N3CCc4ccccc43)c3cc[nH]c3n1)N(C(=O)CN(C)C)CC2"
observedproperty = "inhibition"
unitlabel = "%"
readoutvalue = 0.53

[[record]]
compound = "CC1=C(C(=O)Nc2ccc3[nH]ncc3c2)C(c2ccc3ccccc3c2)CC(=O)N1 (stereo not given)"
observedproperty = "inhibition"
unitlabel = "%"
readoutvalue = 2.12

[[record]]
compound = "O=C1Nc2ccc(C(=O)c3ccco3)cc2C1=Cc1cc(Cl)c(O)c(Cl)c1"
observedproperty = "inhibition"
unitlabel = "%"
readoutvalue = 1.08

[[record]]
compound = "Nc1ncnc2occ(-c3ccc(NC(=O)Nc4cc(C(F)(F)F)cc(C(F)(F)F)c4)cc3)c12"
observedproperty = "inhibition"
unitlabel = "%"
readoutvalue = -0.37

[[record]]
compound = "CCN1CCC(CC(=O)Nc2n[nH]c3nc(-c4cccs4)c(Br)cc23)CC1"
observedproperty = "inhibition"
unitlabel = "%"
readoutvalue = -1.12

[[record]]
compound = "Fc1cccc(COc2ccc(Nc3ncnc4cc(-c5ccc[nH]5)sc34)cc2Cl)c1"
observedproperty = "inhibition"
unitlabel = "%"
readoutvalue = 1.92

[[record]]
compound = "NC(=O)c1cccc(Nc2nccc(Nc3cccc4[nH]ncc34)n2)c1"
observedproperty = "inhibition"
unitlabel = "%"
readoutvalue = -1.84

[[record]]
compound = "NS(=O)(=O)c1ccc(N/N=C2\\C(=O)Nc3ccc(C(=O)NCCc4c[nH]cn4)cc32)cc1"
observedproperty = "inhibition"
unitlabel = "%"
readoutvalue = 4.44

[[record]]
compound = "CCc1cccc(NC(=O)Nc2ccc(Oc3ccc4nc(NC(=O)OC)[nH]c4c3)cc2)c1"
observedproperty = "inhibition"
unitlabel = "%"
readoutvalue = 0.38

[[record]]
compound = "NCc1ccc(-c2nc(-c3ccc(Cl)c(O)c3)c(-c3ccncc3)[nH]2)cc1"
observedproperty = "inhibition"
unitlabel = "%"
readoutvalue = 0.62

[[record]]
compound = "Cc1ccc(C(=O)NC2CCCCC2)cc1-c1ccc(C(=O)NCC2CC2)cc1"
observedproperty = "inhibition"
unitlabel = "%"
readoutvalue = 3.14

[[record]]
compound = "COc1cc2ncn(-c3cc(OCc4ccccc4Cl)c(C(N)=O)s3)c2cc1OC"
observedproperty = "inhibition"
unitlabel = "%"
readoutvalue = 0.97

[[record]]
compound = "COc1ccc(COc2ccc(Cc3cnc(N)nc3N)cc2OC)cc1"
observedproperty = "inhibition"
unitlabel = "%"
readoutvalue = 5.08

[[record]]
compound = "N#Cc1c(NC(=O)c2cccc3ccccc23)sc2c1CCCC2"
observedproperty = "inhibition"
unitlabel = "%"
readoutvalue = 3.76

[[record]]
compound = "Cc1cccc(-c2n[nH]cc2-c2ccc3ncccc3n2)n1"
observedproperty = "inhibition"
unitlabel = "%"
readoutvalue = 0.86

[[record]]
compound = "Nc1ncnc2occ(-c3ccc(NC(=O)Nc4cccc(C(F)(F)F)c4)cc3)c12"
observedproperty = "inhibition"
unitlabel = "%"
readoutvalue = 4.14


* * *

Molecular target: Serine/threonine-protein kinase PAK 3 (Homo sapiens);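 further: reported percentage is a mean inhibition value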
Details: at 1 µM
observedProperty: inhibition (%)

[[record]]
substancesmiles = "O=C1NC(=O)C(c2ccc(Cl)cc2)=C1Nc1ccc(Cl)c(C(=O)O)c1"
unitlabel = "%"
readoutvalue = -2.5

[[record]]
substancesmiles = "Cc1cc(O)cc(C)c1/C=C/c1cncc(-c2nn[nH]n2)c1"
unitlabel = "%"
readoutvalue = 5.43

[[record]]
substancesmiles = "CCn1c(-c2nonc2N)nc2cnc(Oc3cccc(NC(=O)c4ccc(OCCN5CCOCC5)cc4)c3)cc21"
unitlabel = "%"
readoutvalue = 2.69

[[record]]
substancesmiles = "CS(=O)(=O)CCN(CC#N)Cc1ccc(-c2ccc3ncnc(Nc4ccc(OCc5cccc(F)c5)c(Cl)c4)c3c2)o1"
unitlabel = "%"
readoutvalue = 4.29

[[record]]
substancesmiles = "CCc1cccc(NC(=O)Nc2ccc(Oc3ccc4nc(NC(=O)OC)[nH]c4c3)cc2)c1"
unitlabel = "%"
readoutvalue = 2.93


* * *

Measured inhibition accompanies every entry in the list below.
Tested on: Serine/threonine-protein kinase B-raf (Homo sapiens), P15056 [V600E];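 further: enzyme inhibition of the BRAF V599E mutant kinase, given as mean percent inhibition, screened within the GSK PKIS kinase inhibitor set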
Sequence (P15056 whole entry V600E): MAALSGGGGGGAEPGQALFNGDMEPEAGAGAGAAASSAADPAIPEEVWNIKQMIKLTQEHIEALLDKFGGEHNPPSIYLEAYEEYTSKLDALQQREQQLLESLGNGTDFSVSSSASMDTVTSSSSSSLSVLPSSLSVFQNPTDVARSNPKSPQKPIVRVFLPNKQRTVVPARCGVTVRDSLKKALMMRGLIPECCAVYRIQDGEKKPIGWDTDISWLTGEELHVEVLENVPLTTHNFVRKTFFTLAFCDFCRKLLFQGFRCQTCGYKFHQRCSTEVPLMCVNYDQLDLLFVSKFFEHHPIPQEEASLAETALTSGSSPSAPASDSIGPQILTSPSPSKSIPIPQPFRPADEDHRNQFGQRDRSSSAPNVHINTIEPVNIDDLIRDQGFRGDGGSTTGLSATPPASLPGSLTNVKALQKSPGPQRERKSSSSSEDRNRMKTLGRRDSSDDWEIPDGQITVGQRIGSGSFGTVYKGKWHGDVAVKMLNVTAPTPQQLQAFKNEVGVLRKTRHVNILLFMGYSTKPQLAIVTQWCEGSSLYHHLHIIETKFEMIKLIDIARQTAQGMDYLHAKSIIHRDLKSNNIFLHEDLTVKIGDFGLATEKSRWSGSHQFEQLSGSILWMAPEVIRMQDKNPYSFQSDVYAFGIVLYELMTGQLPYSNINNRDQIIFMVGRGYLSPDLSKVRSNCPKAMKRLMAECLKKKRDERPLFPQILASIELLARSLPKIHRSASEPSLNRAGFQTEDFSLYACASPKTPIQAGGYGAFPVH
Details: at 1 µM
Description: GSK_PKIS: BRAF (V599E mutant) mean inhibition at 1 uM [Nanosyn]
observedProperty: inhibition (%)

[[record]]
compound = "COc1ccc(COc2ccc(Cc3cnc(N)nc3N)cc2OC)cc1"
readoutvalue = 0.7

[[record]]
compound = "O=C(Nc1n[nH]c2nc(-c3ccco3)c(Br)cc12)C1CC1"
readoutvalue = 5.23

[[record]]
compound = "O=C1NC(=O)C(c2cccc(Cl)c2)=C1Nc1ccc(O)c(Cl)c1"
readoutvalue = 7.11

[[record]]
compound = "CS(=O)(=O)CCNCc1ccc(-c2ccc3ncnc(Nc4ccc(OCc5cccc(F)c5)c(C(F)(F)F)c4)c3c2)o1"
readoutvalue = 6.22

[[record]]
compound = "CCn1c(-c2nonc2N)nc2ccncc21"
readoutvalue = 3.84

[[record]]
compound = "CN1CCC(C(=O)Nc2n[nH]c3nnc(-c4ccccc4)cc23)CC1"
readoutvalue = 7.58

[[record]]
compound = "CCCN1CCC=C(c2ccc(Nc3nc(Nc4ccccc4C(N)=O)c4cc[nH]c4n3)c(C)c2)C1"
readoutvalue = 28.2

[[record]]
compound = "O=C1NC(=O)C(N2CCc3ccccc32)=C1c1ccc(Cl)cc1"
readoutvalue = 6.79

[[record]]
compound = "Nc1ncnc2occ(-c3ccc(NC(=O)Nc4cccc(C(F)(F)F)c4)cc3)c12"
readoutvalue = 13.5

[[record]]
compound = "NS(=O)(=O)c1ccc(N/N=C2\\C(=O)Nc3ccc(C(=O)NCCc4c[nH]cn4)cc32)cc1"
readoutvalue = 15.9

[[record]]
compound = "COc1ccc(-c2coc3ncnc(N)c23)cc1"
readoutvalue = 6.81

[[record]]
compound = "Fc1cccc(COc2ccc(Nc3ncnc4cc(-c5ccc[nH]5)sc34)cc2Cl)c1"
readoutvalue = 2.69

[[record]]
compound = "CCN1CCC(CC(=O)Nc2n[nH]c3nc(-c4cccs4)c(Br)cc23)CC1"
readoutvalue = -4.51

[[record]]
compound = "COc1cccc(-n2ncc3c(N/N=C/c4cccc(F)c4)ncnc32)c1"
readoutvalue = 5.71

[[record]]
compound = "COc1cc(C)c(NC(=O)CN(C)C)cc1Nc1nc(Nc2cccc(F)c2C(N)=O)c2cc[nH]c2n1"
readoutvalue = 6.56

[[record]]
compound = "CC1=C(C(=O)Nc2ccc3[nH]ncc3c2)C(c2ccc3ccccc3c2)CC(=O)N1 (stereo unspecified)"
readoutvalue = 45.2

[[record]]
compound = "Cc1cccc(-c2n[nH]cc2-c2ccc3ncccc3n2)n1"
readoutvalue = 1.23

[[record]]
compound = "COc1cc2ncn(-c3cc(OCc4ccccc4C(F)(F)F)c(C(N)=O)s3)c2cc1OC"
readoutvalue = 3.52

[[record]]
compound = "CCc1cccc(NC(=O)Nc2ccc(Oc3ccc4nc(NC(=O)OC)[nH]c4c3)cc2)c1"
readoutvalue = 13.8

[[record]]
compound = "O=C1NC(=O)C(c2ccc(Cl)cc2)=C1Nc1ccc(Cl)c(C(=O)O)c1"
readoutvalue = -3.77

[[record]]
compound = "COc1ccc2cc(-c3c(-c4ccncc4)nc(-c4ccc([S+](C)[O-])cc4)n3C)ccc2c1 (stereo unspecified)"
readoutvalue = 4.5


* * *

Test system: Proto-oncogene tyrosine-protein kinase receptor Ret (Homo sapiens), P07949 [Y791F]
Sequence (P07949 whole entry Y791F): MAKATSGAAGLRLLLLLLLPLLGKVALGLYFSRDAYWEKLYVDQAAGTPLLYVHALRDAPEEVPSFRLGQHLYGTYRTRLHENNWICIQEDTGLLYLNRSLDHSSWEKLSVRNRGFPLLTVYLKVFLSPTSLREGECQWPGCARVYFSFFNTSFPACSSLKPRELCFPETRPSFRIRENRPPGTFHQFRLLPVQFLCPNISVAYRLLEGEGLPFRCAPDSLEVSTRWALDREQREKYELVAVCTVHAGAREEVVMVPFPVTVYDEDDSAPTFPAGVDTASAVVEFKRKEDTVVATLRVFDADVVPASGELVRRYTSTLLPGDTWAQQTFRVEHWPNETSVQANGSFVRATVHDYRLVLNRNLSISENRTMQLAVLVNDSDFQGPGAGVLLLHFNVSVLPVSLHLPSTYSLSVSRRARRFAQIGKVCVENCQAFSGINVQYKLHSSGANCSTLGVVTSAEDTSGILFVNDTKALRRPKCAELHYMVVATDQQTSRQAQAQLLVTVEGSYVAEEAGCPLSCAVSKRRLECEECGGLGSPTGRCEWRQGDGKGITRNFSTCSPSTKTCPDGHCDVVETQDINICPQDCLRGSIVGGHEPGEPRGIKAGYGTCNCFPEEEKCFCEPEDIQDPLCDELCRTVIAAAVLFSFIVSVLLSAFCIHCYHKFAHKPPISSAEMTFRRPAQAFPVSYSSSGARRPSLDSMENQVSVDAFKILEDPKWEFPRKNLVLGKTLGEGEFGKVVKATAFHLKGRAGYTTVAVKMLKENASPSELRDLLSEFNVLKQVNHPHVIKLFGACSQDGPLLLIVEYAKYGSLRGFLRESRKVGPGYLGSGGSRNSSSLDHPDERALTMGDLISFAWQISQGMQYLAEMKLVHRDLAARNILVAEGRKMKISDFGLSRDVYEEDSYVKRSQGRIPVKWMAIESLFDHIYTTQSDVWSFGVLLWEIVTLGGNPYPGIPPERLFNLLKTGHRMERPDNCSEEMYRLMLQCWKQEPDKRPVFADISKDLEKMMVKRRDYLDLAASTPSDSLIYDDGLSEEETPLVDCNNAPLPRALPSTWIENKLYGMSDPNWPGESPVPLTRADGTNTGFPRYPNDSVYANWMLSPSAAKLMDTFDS
Settings: at 1 µM
observedProperty: inhibition (%)

[[record]]
compound = "c1cnn2ncc(-c3ccnc(Nc4ccc5c(c4)OCCO5)n3)c2c1"
readoutvalue = 26.2

[[record]]
compound = "CS(=O)(=O)CCNCc1ccc(-c2ccc3ncnc(Nc4ccc(OCc5ccccc5)c(Cl)c4)c3c2)o1"
readoutvalue = 12.1

[[record]]
compound = "CC1=C(C(=O)Nc2ccc3[nH]ncc3c2)C(c2ccc(F)cc2)NC(=O)N1 (stereo not given)"
readoutvalue = 42.4

[[record]]
compound = "CCn1c(-c2nonc2N)nc2cnc(Oc3cccc(NC(=O)c4ccc(OCCN5CCOCC5)cc4)c3)cc21"
readoutvalue = 7.86

[[record]]
compound = "CCc1cccc(NC(=O)Nc2ccc(Oc3ccc4nc(NC(=O)OC)[nH]c4c3)cc2)c1"
readoutvalue = 74.6

[[record]]
compound = "COc1ccc(-c2coc3ncnc(N)c23)cc1"
readoutvalue = 11

[[record]]
compound = "CS(=O)(=O)Nc1ccc(N/C=C2\\C(=O)Nc3ccccc32)cc1"
readoutvalue = 50

[[record]]
compound = "O=C1NC(=O)C(c2ccc(Cl)cc2)=C1Nc1ccc(Cl)c(C(=O)O)c1"
readoutvalue = -1.73

[[record]]
compound = "NC(=O)c1cccc(Nc2nccc(Nc3cccc4[nH]ncc34)n2)c1"
readoutvalue = 79.7

[[record]]
compound = "NC(=O)c1ccc(-c2nc(-c3ccccn3)c(-c3ccc4c(c3)OCO4)[nH]2)cc1"
readoutvalue = 13.7

